B1: Azoarcus group I ribozyme (parent)
chain: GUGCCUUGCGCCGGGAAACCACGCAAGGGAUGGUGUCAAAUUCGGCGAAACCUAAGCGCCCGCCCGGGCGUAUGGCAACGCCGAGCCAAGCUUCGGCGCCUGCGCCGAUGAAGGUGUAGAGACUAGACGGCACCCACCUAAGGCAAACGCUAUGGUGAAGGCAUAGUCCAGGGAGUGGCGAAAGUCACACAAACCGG

- Variants of: B1
- EXPERIMENT SUMMARY: reverse-splicing fitness (ratio to wild type); higher = more active; in vitro selection; Mg2+ level not given
ATTRIBUTE MEASURED: reverse-splicing fitness

A120G A145C C150A C169A U176A : 0.0162
C82G A111G A145G C150U C169A U176G : 0.00698
C82A A145U C150A C169U : 0.00955
C82U A120G A145C C150A C169A U176A : 0.0124
C82G A120U A145C C150U U176C : 0.0197
A111U A145U C169G : 0.0652
A111U C150A U176G : 0.0846
C82A A111G A120C C150G C169U U176G : 0.00651
A120G A145C C150U U176G : 0.0108
C82G A111U A120C C150U U176A : 0.0133
C82A A120G A145G C150G C169U : 0.0106
C82U A111G A145C C150U U176A : 0.0454
C82A A111C A145U C150A C169G U176G : 0.0087
C82A A120C A145U C169A U176G : 0.00493
C150A C169G U176C : 0.0327
C82A A111G A120G A145G C150U U176G : 0.00788
A120C A145U C150G : 0.262
C82U A111C A145G C150A C169G U176G : 0.00685
A111U A120C A145G U176G : 0.0419
A111G A120G A145U U176A : 0.0829
C82U A111C C150A C169G U176G : 0.00835
C82A A111G A120U A145U C150A : 0.00648
